- experimental_target: Toll-like receptor 4 (Mus musculus)
- Sequence (whole entry): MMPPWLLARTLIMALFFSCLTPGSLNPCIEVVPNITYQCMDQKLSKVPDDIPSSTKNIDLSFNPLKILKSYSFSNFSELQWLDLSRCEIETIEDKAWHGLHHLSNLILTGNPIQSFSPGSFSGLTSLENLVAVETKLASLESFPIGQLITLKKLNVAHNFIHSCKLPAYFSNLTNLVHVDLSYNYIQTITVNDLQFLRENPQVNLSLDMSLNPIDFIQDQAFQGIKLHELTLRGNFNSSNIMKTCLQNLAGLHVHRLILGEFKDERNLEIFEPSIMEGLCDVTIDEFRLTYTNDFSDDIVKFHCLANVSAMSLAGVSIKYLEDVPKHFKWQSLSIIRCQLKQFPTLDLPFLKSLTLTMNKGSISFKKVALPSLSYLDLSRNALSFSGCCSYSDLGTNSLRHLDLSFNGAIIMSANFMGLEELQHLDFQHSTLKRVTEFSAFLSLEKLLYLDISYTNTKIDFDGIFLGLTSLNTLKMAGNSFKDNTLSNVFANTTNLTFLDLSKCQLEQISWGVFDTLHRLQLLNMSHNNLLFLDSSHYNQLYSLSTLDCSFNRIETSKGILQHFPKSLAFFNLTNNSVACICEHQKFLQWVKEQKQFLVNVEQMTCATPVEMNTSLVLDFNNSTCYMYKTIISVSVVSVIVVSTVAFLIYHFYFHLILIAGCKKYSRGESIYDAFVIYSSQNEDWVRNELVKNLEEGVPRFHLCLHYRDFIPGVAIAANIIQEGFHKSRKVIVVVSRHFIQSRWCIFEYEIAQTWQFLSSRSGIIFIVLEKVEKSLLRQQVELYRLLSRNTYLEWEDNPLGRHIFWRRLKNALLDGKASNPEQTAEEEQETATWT
- assay_procedure: Agonist activity at TLR4 in thioglycollate-elicited mouse peritoneal macrophages assessed as induction of IL-6 production in after 18 hrs by ELISA
- Assay type: functional
property: Activity (pg/mL)

{"columns": ["compound_structure_string", "Activity (pg/mL)"],
 "data": [
  ["CCCCCCCCCCCCCCCCO[C@H](COC(=O)CCCCCCCCCCCCCCC)COP(=O)(O)O[C@@H]1[C@H](O[C@H]2O[C@H](COC(=O)CCCCCCCCCCCCCCC)[C@@H](O)[C@H](O)[C@@H]2O)[C@H](O)[C@@H](O)[C@H](O)[C@H]1O[C@H]1O[C@H](CO)[C@@H](O)[C@H](O)[C@@H]1O", 275]
]}

a: CCCCCCCCCCCCCCCC(=O)OC[C@H](COP(=O)(O)O[C@@H]1[C@H](O[C@H]2O[C@H](CO)[C@@H](O)[C@H](O)[C@@H]2O)[C@H](O)[C@@H](O)[C@H](O)[C@H]1O[C@H]1O[C@H](CO)[C@@H](O)[C@H](O)[C@@H]1O)OC(=O)CCCCCCCCCCCCCCC
b: CCCCCCCCCCCCCCCC(=O)OC[C@H](COP(=O)(O)OC(CO[C@H]1O[C@H](CO)[C@@H](O)[C@H](O)[C@@H]1O)CO[C@H]1O[C@H](CO)[C@@H](O)[C@H](O)[C@@H]1O)OC(=O)CCCCCCCCCCCCCCC
c: CCCCCCCCCCCCCCCCOC[C@H](COP(=O)(O)O[C@@H]1[C@H](O[C@H]2O[C@H](CO)[C@@H](O)[C@H](O)[C@@H]2O)[C@H](O)[C@@H](O)[C@H](O)[C@H]1O[C@H]1O[C@H](CO)[C@@H](O)[C@H](O)[C@@H]1O)OCCCCCCCCCCCCCCCC
Highest Activity first, then in falling order down to the smallest. Answer by writing out the labels in the requested order.
a, c, b
